test: NCI Yeast Anticancer Drug Screen. Data for the rad50EPP+ strain (AID 151);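 further: 0% = growth of vehicle-treated control cultures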; conditions: S. cerevisiae rad50 mutant strain, at 100.0 µM
This is part of a sample that, as a whole, favours compounds with a hit. Of some 79,000 tested, about 15% had one in any assay. Active and inactive are the calls of the source. No stated cut-off is given here; in the data, active means growth inhibition above about 70%; inactive means the rest.
Answer with one of the outcomes class 1 (active), class 0 (inactive)

Entry CC(C)=CCc1c2c(c(O)c3c(=O)c(-c4ccc(O)c(O)c4)coc13)C=CC(C)(C)O2 : call = ? class 0

Entry CCOc1ccc2nc3ccccc3c(N)c2c1 : call = ? class 1

Entry CC1CN(/N=C\c2ccc([N+](=O)[O-])o2)C(=O)O1 (configuration not stated) : call = ? class 0

Entry CCOC(=S)SSSC(=S)OCC : call = ? class 1

Entry CCOC(=O)Nc1ccc(C)c(NC(=O)OCC)c1 : call = ? class 0

Entry O=C1C=C(NCCc2cc(Br)c(O)c(Br)c2)C(=O)c2ncccc21 : call = ? class 1

Entry COc1ccc2cc(C(C)C(=O)N3CCOC3=O)ccc2c1 (configuration not stated) : call = ? class 0

Entry Cc1c(C(=O)/C=C/c2ccccc2[N+](=O)[O-])[n+](=O)c2ccccc2n1[O-] : call = ? class 1

Entry CC(C)Cc1ncc(CCCN=C(N)N)[nH]c1=O : call = ? class 0

Entry CCCCCCCC/C=C\CCCCCCCCN : call = ? class 1

Entry O=C1CC(C(O)(C(F)(F)F)C(F)(F)Cl)CCC1C(O)(C(F)(F)F)C(F)(F)Cl (configuration not stated) : call = ? class 0

Entry O/N=c1/ccn(O)c2ccccc12 : call = ? class 1

---

assay: NCI Yeast Anticancer Drug Screen. Data for the sgs1 strain (AID 173);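 further: 0% = growth of vehicle-only control cultures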; conditions: S. cerevisiae sgs1 mutant, at 11.0 µM
Compounds without any hit were thinned out: in the full panel of roughly 79,000, 15% have a hit. Calls of active or inactive are those of the source. No stated cut-off is given here; in the data, active means growth inhibition above about 70%; inactive means the rest.
Answer with one of the outcomes t for active, f for inactive

Entry CCOc1ccc2nc3ccccc3c(N)c2c1 : call = ? f

Entry CCN(CC)CCC(=O)Nc1ccc2sc3ccccc3c(=O)c2n1 : call = ? f

Entry O=C(C#Cc1ccccc1)/C=C/c1ccccc1 : call = ? f

Entry Nc1ccc(/C=C/c2ccc3cccnc3c2)cc1 : call = ? f

Entry O=C1CSC(c2ccccc2)N1c1ccc(-c2ccc(-n3c(-c4ccccc4)nc4ccccc4c3=O)cc2)cc1 (stereo not drawn) : call = ? f

Entry O=NC1c2cccc3cccc(c23)C1N=O (stereo not drawn) : call = ? f

Entry O=C(C#Cc1ccccc1)Nc1ccccc1 : call = ? f

Entry CC1(C2CC2)C(C#N)(C#N)C1(C#N)C#N : call = ? f

Entry CCCNCC(=O)O[C@]1(CC)C(=O)OCc2c1cc1n(c2=O)Cc2cc3ccccc3nc2-1 : call = ? f

Entry O=C1NC(c2cccc(OCc3ccccc3)c2)Nc2ccccc21 (stereo not drawn) : call = ? f

Entry Cn1c(-c2ccc(/C=N\N3CCN(/N=C/c4ccc(-c5c[n+]6ccsc6n5C)cc4)CC3)cc2)c[n+]2ccsc12 : call = ? f

Entry CCCCCCCCCCCCCCCCCCN(C)C(COC)COP(=O)([O-])OCC[N+](C)(C)C (stereo not drawn) : call = ? t

Entry CCN(CC)C(=S)N/N=C(\C)c1ccccc1O : call = ? f

Entry Cc1cc(OCc2nc(N)nc(N)c2-c2ccc(Cl)c(Cl)c2)ccc1[N+](=O)[O-] : call = ? f

Entry COc1cccc(C(NC2=NCCC=N2)c2cc3c(cc2O)OCO3)c1O (stereo not drawn) : call = ? f

Entry CC1(C)CC(=O)C(C(=O)Nc2cccs2)=C(O)C1 : call = ? f

Entry COC(=O)C(Cl)(Cl)N=Nc1c(Cl)cc(Cl)c(C)c1Cl : call = ? t

Entry Cc1c2cc[n+](CCO)cc2c(C)c2c1[nH]c1ccc(O)cc12 : call = ? f

Entry N#CC1OB(O)c2ccccc21 (stereo not drawn) : call = ? f

Entry O=C(NC(N1CCN(c2cc3c(cc2F)c(=O)c(C(=O)O)cn3C2CC2)CC1)(C(F)(F)F)C(F)(F)F)c1ccccc1 : call = ? f

Entry Nc1ccc2c(c1)C(=O)c1c(F)cccc1-2 : call = ? f

Entry O/N=c1/ccn(O)c2ccccc12 : call = ? t

Entry Cc1c2c(nc3ccccc13)C(=O)c1cccnc1C2=O : call = ? f

---

Provide the reported growth inhibition of each item.
test: NCI Yeast Anticancer Drug Screen. Data for the mlh1 strain (AID 171);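 further: 0% = growth of vehicle-treated control cultures of the same strain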; details: S. cerevisiae mlh1 strain growth inhibition; at 3.7 µM; stronger effect = higher value
This is part of a sample that, as a whole, favours compounds with a hit. Of some 79,000 tested, about 15% had one in any assay.
Your answer is read as %, so omit the unit and give the number.

What measured growth inhibition goes with O=C1c2ccccc2-c2cc3ccccc3c(=O)n21 ? 19

What measured growth inhibition goes with CC1(C2CC2)C(C#N)(C#N)C1(C#N)C#N ? -9

What measured growth inhibition goes with c1ccc2nc3c(nc2c1)sc1ccccc13 ? 3

What measured growth inhibition goes with O=C1C=C(NCCc2cc(Br)c(O)c(Br)c2)C(=O)c2ncccc21 ? 27

What measured growth inhibition goes with N#CC1OB(O)c2ccccc21 (configuration not stated) ? -5

What measured growth inhibition goes with CCN(CC)C(=S)SC(=S)N(CC)CC ? -48

What measured growth inhibition goes with Oc1ccc(C2(c3ccc(O)cc3)CCCC2)cc1 ? -26

---

experiment: NCI Yeast Anticancer Drug Screen. Data for the cln2 rad14 strain (AID 165);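 further: 0% = growth equal to vehicle treated cultures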; details: S. cerevisiae cln2 rad14 strain, at 5.0 µM (retest, dose inferred, filed as 0.5)
About 79,000 compounds went through this panel and 15% of them were active in at least one assay; those are over-represented in the sample as a whole. Activity calls are given as the source filed them. No stated cut-off is given here; in the data, active means growth inhibition above about 70%; inactive means the rest.
Answer with one of the outcomes active, inactive

Entry O=C1Oc2ccccc2C(=O)/C1=C/N1C(=O)N/C(=C\c2ccccc2Br)C1=O : call = ? inactive

Entry O=C1C=C(NCCc2cc(Br)c(O)c(Br)c2)C(=O)c2ncccc21 : call = ? inactive

Entry OC1(c2ccccc2)C2CC=CC2C1(c1ccccc1)c1ccccc1 (stereo unspecified) : call = ? inactive

Entry CCN(CC)CCNc1ccc2nc(C)n3c4ccc(OC)cc4c(=O)c1c23 : call = ? inactive

Entry CN(C)CC(CN(C)C)C(=O)/C=C/c1ccc(Cl)cc1Cl : call = ? inactive

Entry COc1ccc2nc3cccc([N+](=O)[O-])c3c(NCCCCCC(=O)O)c2c1 : call = ? active

Entry Cc1ccc(S(=O)(=O)Nc2cccc3cccnc23)cc1 : call = ? inactive

Entry Cc1c(C(=O)/C=C/c2ccccc2[N+](=O)[O-])[n+](=O)c2ccccc2n1[O-] : call = ? inactive

Entry Cc1ccc(NC(=O)CCC(=O)C(C)C(=O)c2ccccc2)c(C)c1 (stereo unspecified) : call = ? inactive

Entry CCCCCCCCNCCCCCCCC : call = ? inactive

Entry CCN(CC)CCCNc1ccc([N+](=O)[O-])c2nc3ccc(OC)cc3c(NCCCN(CC)CC)c12 : call = ? inactive

---

Provide the reported growth inhibition of each item.
experiment: NCI Yeast Anticancer Drug Screen. Data for the rad50 strain (AID 155);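 further: 0% = growth of vehicle-only cultures of the same strain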; settings: S. cerevisiae rad50 strain growth inhibition; at 33.0 µM; stronger effect = higher value
Compounds without any hit were thinned out: in the full panel of roughly 79,000, 15% have a hit.
Your answer is read as %, so omit the unit and give the number.

What measured growth inhibition goes with COc1cc(C(=O)C=O)cc(OC)c1OC ? 19

What measured growth inhibition goes with OC1(c2ccccc2)C2CC=CC2C1(c1ccccc1)c1ccccc1 (stereo not drawn) ? 43

What measured growth inhibition goes with CC1=CC(C)(C)SC(SSSC2=NC(C)=CC(C)(C)S2)=N1 ? 1

What measured growth inhibition goes with CC1=CN2C(c3ccccc3)=NON(c3ccc(C)cn3)C2C=C1 (stereo not drawn) ? 1

What measured growth inhibition goes with CCCCCCCCCCCCCCCCCCN(C)C(COC)COP(=O)([O-])OCC[N+](C)(C)C (stereo not drawn) ? 98

What measured growth inhibition goes with O=C1CSC(c2ccccc2)N1c1ccc(-c2ccc(-n3c(-c4ccccc4)nc4ccccc4c3=O)cc2)cc1 (stereo not drawn) ? 13

What measured growth inhibition goes with CCN(CC)CC(=O)c1ccc2cc(Cl)c3ccccc3c2c1 ? 98

What measured growth inhibition goes with O=c1cccccc1[O-].O=c1cccccc1[O-].O=c1cccccc1[O-].[Eu+3] ? 97

What measured growth inhibition goes with O=C1/C(=C/c2ccc(Cl)c(Cl)c2)CNC/C1=C\c1ccc(Cl)c(Cl)c1 ? 68

What measured growth inhibition goes with O=C(NCCCCN(CCCNC(=O)C(F)(F)F)Cc1ccccc1)C(F)(F)F ? 33

What measured growth inhibition goes with O=C1SS(=O)c2ccccc21 (stereo not drawn) ? 26

What measured growth inhibition goes with CC(C)NCCCNc1c2ccccc2nc2cccc([N+](=O)[O-])c12 ? 96

What measured growth inhibition goes with CC1=COC2=C(C)C(=O)C(=O)c3c(C)ccc1c32 ? 85

What measured growth inhibition goes with COc1cc([N+](=O)[O-])c2ncccc2c1Br ? 33

What measured growth inhibition goes with CCC(/C=C/c1ccccc1)=N\Nc1ccc(Cl)c(Cl)c1 ? 89

What measured growth inhibition goes with CCN(CC)CCNc1ccc2ncn3c4ccc(O)cc4c(=O)c1c23 ? 81

What measured growth inhibition goes with COc1ccc2nc3cccc([N+](=O)[O-])c3c(NCCNCCN(C)C)c2c1 ? -4

What measured growth inhibition goes with CC(C)(Br)C(=O)/C=C/c1ccccc1 ? 34

What measured growth inhibition goes with Cc1ccc(S(=O)(=O)Nc2cccc3cccnc23)cc1 ? 79

What measured growth inhibition goes with N#CSCC1COc2ccccc2O1 (stereo not drawn) ? 86

What measured growth inhibition goes with CO[C@@]1([C@@H](Cl)c2ccccc2)C(=O)N(C)/C(=C\c2ccccc2)C(=O)N1C ? 11

What measured growth inhibition goes with CN(C)CCCn1c2c3ccccc3ccc2c2oc(=O)c3ccccc3c21 ? 97

What measured growth inhibition goes with O=S1(=O)CCC2=CC(C(F)(F)F)=CC(C(F)(F)F)=CN21 ? 89
